Measured values drawn from paper PMC8213153 for this set.

# Test Protocol: Cytotoxicity (MTT) assay of single and dual combinatory drugs
# Assay type: cell-based
# Run Conditions: human, LOPIRITO-CLARITHROMYCIN series; 0.2 μg/mL; read-out: Cell Viability (%)
Test Readout: viability at 48 h, 0.2 μg/mL (%)

compound="CC[C@H]1OC(=O)[C@H](C)[C@@H](O[C@H]2C[C@@](C)(OC)[C@@H](O)[C@H](C)O2)[C@H](C)[C@@H](O[C@@H]2O[C@H](C)C[C@H](N(C)C)[C@H]2O)[C@](C)(OC)C[C@@H](C)C(=O)[C@H](C)[C@@H](O)[C@]1(C)O [CLA, Clarithromycin]" display_unit=% reported_result=134

###

# Test Protocol: Cytotoxicity (MTT) assay of single and dual combinatory drugs
# Type: cell-based
# Run Conditions: human, LOPIRITO-AZITHROMYCIN series; 100 μg/mL; read-out: Viability Cell (%)
Test Readout: viability at 48 h, 100 μg/mL

structure_as_smiles=CC[C@H]1OC(=O)[C@H](C)[C@@H](O[C@H]2C[C@@](C)(OC)[C@@H](O)[C@H](C)O2)[C@H](C)[C@@H](O[C@@H]2O[C@H](C)C[C@H](N(C)C)[C@H]2O)[C@](C)(O)C[C@@H](C)CN(C)[C@H](C)[C@@H](O)[C@]1(C)O reported_result=89.5%

###

Measured IL-10, listed per entry.
# Tested on: IL-10
# Test Protocol: IL-10 level of virus-infected Vero cells (ELISA)
# Assay type: cell-based
# Run Conditions: 15 μg/mL; 24-h
# Procedure: To enable measurement of IL-6, IL-10 and TNF-α levels, the culture medium of the treated cells was collected in sterile micro-tubes and centrifuged at 3,500 rpm for 20 minutes. The supernatants were carefully collected and diluted with aquadest at a 1:5 volume ratio and vortexed until homogenous. […] The samples were measured for antigen concentration using the optical density (OD) plotted into the standard curves of IL-6, IL-10, and TNF-α.
Test Readout: IL-10

molecule=CC[C@H]1OC(=O)[C@H](C)[C@@H](O[C@H]2C[C@@](C)(OC)[C@@H](O)[C@H](C)O2)[C@H](C)[C@@H](O[C@@H]2O[C@H](C)C[C@H](N(C)C)[C@H]2O)[C@](C)(O)C[C@@H](C)CN(C)[C@H](C)[C@@H](O)[C@]1(C)O reported_result="32.78 ± 1.18 pg/mL"
molecule="CCN(CCO)CCCC(C)Nc1ccnc2cc(Cl)ccc12 (stereo not shown) [HCQ, Hydroxychloroquine]" reported_result="32.43 ± 1.19 pg/mL"
molecule=NC(=O)c1nc(F)c[nH]c1=O reported_result="27.97 ± 0.29 pg/mL"
molecule=C[C@H]1c2cccc(O)c2C(=O)C2=C(O)[C@]3(O)C(=O)C(C(N)=O)=C(O)[C@@H](N(C)C)[C@@H]3[C@@H](O)[C@@H]21 reported_result="35.31 ± 1.53 pg/mL"

###

# Test Protocol: Cytotoxicity (MTT) assay of single and dual combinatory drugs
# Format: cell-based
# Run Conditions: human, LOPIRITO-CLARITHROMYCIN series; 10 μg/mL; read-out: Cell Viability (%)
Test Readout: viability at 48 h, 10 μg/mL (%)

compound="CC[C@H]1OC(=O)[C@H](C)[C@@H](O[C@H]2C[C@@](C)(OC)[C@@H](O)[C@H](C)O2)[C@H](C)[C@@H](O[C@@H]2O[C@H](C)C[C@H](N(C)C)[C@H]2O)[C@](C)(OC)C[C@@H](C)C(=O)[C@H](C)[C@@H](O)[C@]1(C)O [CLA, Clarithromycin]" test_readout="viability at 48 h, 10 μg/mL" reported_result=79.4
